- System: SF-268 CNS
- assay.method.text: NCI-60 one-dose screen, 48 h (100 = growth as untreated, 0 = no growth, -100 = all killed)
- measurement.setup: 10 µM unless noted
The panel holds about 83,000 compounds, 20% with a hit somewhere; the sample as a whole holds those more often. The source made the active and inactive calls. Rule for the calls: active = growth percent below 10; inactive = the rest.
Listed here: items and their measured growth.
parameter.measured: growth

* COC(=O)c1ccc(NC2=C(Cl)C(=O)C(C)=C(C)C2=O)cc1 | 87.3% (inactive)
* CN(C)c1cccc2c(S(=O)(=O)Nc3cccc(-c4csc(NC(=O)CCCCCN5CCN(CCO)CC5)n4)c3)cccc12 | 93.5% (inactive)
* COC(=O)c1ccc(NC2=C(Cl)C(=O)c3nc(C)ccc3C2=O)cc1 | 72.9% (inactive)
* N#Cc1c(-c2ccc(F)cc2)cc(-c2c[nH]c3ccccc23)nc1-c1c[nH]c2ccccc12 | 101% (inactive)
* Cc1ccccc1NC(=O)Nc1nc2ccc([N+](=O)[O-])cc2s1 | 18.6% (inactive)
* Brc1cccc(-c2cc(-c3cnc4c(c3)OCCO4)n[nH]2)c1 | 76.5% (inactive)
* CCOC(=O)C1=C(C)NC(C)=C(C(=O)OC(C)C)C1c1cccc(C#N)c1 (stereo not given) | 96.9% (inactive)
* Cc1ccc(S(=O)(=O)c2nc(-c3ccc(F)cc3)oc2S(C)(=O)=O)cc1 | 95.1% (inactive)
* Cc1ccccc1Nc1nc(SC(C)C)nc(-c2ccccc2)c1C#N | 57% (inactive)
* O=C(/C=C/c1cccc(C(F)(F)F)c1)Nc1cccc(C(F)(F)F)c1 | 70.7% (inactive)
* Cc1ccc(N2CCN(C3=C(Cl)C(=O)c4ncccc4C3=O)CC2)cc1 | 80.2% (inactive)
* CN1CCN(Cc2ccc(NC(=O)c3cncc(C#Cc4cnc(N)nc4)c3)cc2C(F)(F)F)CC1 | 28.1% (inactive)
* N#C/C(=N\Nc1ccc(F)cc1)C(=O)Nc1cc(-c2ccccc2)nn1-c1ccccc1 | 14.5% (inactive)
* O=C1C(N2CCN(c3ccccc3)CC2)=C(Cl)C(=O)c2ncccc21 | 79.4% (inactive)
* CCCCN1C(=O)/C(=c2\sc3n(c2=O)C2C(NN=3)N(CC)C(=O)N2CC)c2cccc(C)c21 (stereo not given) | 56.2% (inactive)
* Cn1cc(-c2nn3cc(-c4ccncc4)nc3s2)c2cc(F)ccc21 | 94.8% (inactive)
* C#CCN(C)CCCOc1ccc(NCc2ccc(C(=O)NO)cc2)cc1Cl | 30.3% (inactive)
* COc1ccc(-c2c(C(N)=O)c(N)n(Cc3nc4ccccc4[nH]3)c(=O)c2C#N)c(OC)c1 | 102% (inactive)
* N#Cc1c(-c2cccs2)cc(-c2cnccn2)nc1SCC(=O)N/N=C/c1ccc(Cl)cc1 | 102% (inactive)
* CN1c2ccccc2Sc2cc(/C=N/Nc3ccnc4cc(Cl)ccc34)ccc21 | 99.4% (inactive)

---

- Tested on: OVCAR-4 ovarian
- assay.method.text: NCI-60 one-dose screen, 48 h (100 = growth as untreated, 0 = no growth, -100 = all killed)
- measurement.setup: 10 µM unless noted
Compounds without any hit were thinned out: in the full panel of roughly 83,000, 20% have a hit.
Short version: growth at least 40% is true (1), less is false (0).

• COC(=O)c1cccc(NC2=C(Cl)C(=O)C(C)=C(C)C2=O)c1 = false (0)
• N#Cc1nc(-c2ccc(Cl)cc2)oc1N1CCC(S(=O)(=O)N2CCOCC2)CC1 = true (1)
• O=C(O)CC1CCN(c2ccc3nnc(Cl)n3n2)CC1 = true (1)
• COc1ccccc1/C=C1\Oc2ccc(O)c(O)c2C1=O = true (1)
• O=c1nc(Nc2ccc([N+](=O)[O-])cc2O)sc2ccccc12 = false (0)
• CCOC(=O)c1cccnc1Nc1ccc(NC(=O)Nc2ccc(Cl)c(C(F)(F)F)c2)cc1 = true (1)
• C#Cc1cc(OC)c(C(=O)Nc2ccc(F)cc2C(=O)Nc2cccc(S(=O)(=O)C(F)(F)F)c2)cn1 = false (0)
• CN1CCN(Cc2ccc(NC(=O)c3cncc(C#Cc4cnc5ccc(O[C@@H]6CCOC6)nn45)c3)cc2C(F)(F)F)CC1 = false (0)
• O=C(CCCCCCNC(=O)C(O)(O)C(F)(F)F)Nc1ccc(Cl)cc1 = true (1)
• CCCCCN1C(=O)/C(=c2\sc3n(c2=O)C2C(NN=3)N(CC)C(=O)N2CC)c2cccc(C)c21 (centres undefined) = true (1)
• COc1ccc2[nH]cc(/C=N/Nc3ccnc4cc(Cl)ccc34)c2c1 = false (0)
• O=C(N/N=C/c1cc2ccccc2nc1Cl)c1cc(-c2nc3ccccc3[nH]2)nc2ccccc12 = true (1)
• O=S(=O)(Oc1ccc(-c2cn3ccoc3n2)cc1)C1CCCCC1 = true (1)
• CCCc1[nH]c(-c2cc(N)ccc2Cl)c2c1C(=O)CCCC2 = true (1)
• Nc1nc(=O)n([C@H]2C[C@H](O)[C@@H](CO)O2)cc1C=O = true (1)
• CCCNNC(=O)c1ccc(-c2ccc(NC(=O)CCCCCCC(=O)N[C@H](C(=O)N3C[C@H](O)C[C@H]3C(=O)N[C@@H](C)c3ccc(-c4scnc4C)cc3)C(C)(C)C)cc2)cc1 = true (1)
• CC(=O)Nc1cc(N2CCOCC2)c2nc(NC(=O)c3[nH]c(C)c(Cl)c3Cl)sc2c1 = false (0)
• O=C(Nc1cc(C(F)(F)F)cc(C(F)(F)F)c1)Nc1ccc2oc(=O)ccc2c1 = false (0)
• COc1ccccc1N1CCN(C2=C(Cl)C(=O)c3ncccc3C2=O)CC1 = true (1)
• O=S(=O)(NCCCNc1nccc(-c2[nH]c(-c3ccccc3)nc2-c2ccc(F)c(O)c2)n1)c1ccccc1 = true (1)
• Cc1ccc(/C=N/Nc2nc(Nc3ccccc3)nc(Nc3ccc(S(N)(=O)=O)cc3)n2)cc1 = true (1)
• Brc1cccc(-c2cc(-c3cnc4c(c3)OCCO4)n[nH]2)c1 = true (1)
• CCOC(=O)c1ccc(NC2=C(Cl)C(=O)c3nc(C)ccc3C2=O)cc1 = false (0)
• CN1CCN(Cc2ccc(NC(=O)c3cncc(C#Cc4cnc5ccc(OC6CCOCC6)nn45)c3)cc2C(F)(F)F)CC1 = false (0)
• CCC1=Cc2c(OC)cccc2OC12C=Cc1c(OC)cccc1O2 (centres undefined) = true (1)
• C1=CC(c2nn3c(-c4ccccc4)nnc3s2)=Cc2ccccc2O1 = true (1)
• CC(C)Sc1nc(-c2ccccc2)c(C#N)c(N2CCOCC2)n1 = false (0)
• CCc1cc(OC(=O)N2CCC(N3CCCCC3)CC2)ccc1Nc1cc(-c2ccc(-n3cccn3)cc2)[nH]n1 = true (1)
• Cc1ccc(-c2csc(N/N=C/c3cccs3)n2)cc1 = true (1)
• COc1cc2oc(-c3cccc(NC(=O)c4cccc([N+](=O)[O-])c4)c3)cc(=O)c2c(OC)c1OC = false (0)
• CCCCN1C(=O)/C(=c2\sc3n(c2=O)C2C(NN=3)N(CC)C(=O)N2CC)c2cc(C)ccc21 (centres undefined) = true (1)
• O=C1C(SCc2ccccc2)=C(Cl)CN1c1ccccc1 = true (1)
• COc1ccc(/C=N\NC(=O)c2cnn(CC(O)c3ccccc3)c2N)cc1OCc1ccc(Cl)cc1 (centres undefined) = true (1)
• CC(=C(c1ccc(OCCN2CCCC2)cc1)c1ccc(OCCN2CCCC2)cc1)c1ccc(Cl)cc1 = false (0)
• NC(=O)c1ncn2c(=O)n(CCF)nnc12 = true (1)
• O=C(CSc1nc2ccccc2c(=O)n1CCc1ccccc1)Nc1ccc(S(=O)(=O)Nc2ccc(Cl)nn2)cc1 = true (1)
• Fc1ccc(-c2cn3c(-c4c[nH]c5ccc(Br)cc45)csc3n2)cc1 = false (0)
• O=C(CCl)Nc1ccc(NC(=O)c2cc(Cl)ccc2O)c(Cl)c1 = true (1)
